Biological target: FKBP51 (Homo sapiens (Human))
Sequence (Q13451 whole entry): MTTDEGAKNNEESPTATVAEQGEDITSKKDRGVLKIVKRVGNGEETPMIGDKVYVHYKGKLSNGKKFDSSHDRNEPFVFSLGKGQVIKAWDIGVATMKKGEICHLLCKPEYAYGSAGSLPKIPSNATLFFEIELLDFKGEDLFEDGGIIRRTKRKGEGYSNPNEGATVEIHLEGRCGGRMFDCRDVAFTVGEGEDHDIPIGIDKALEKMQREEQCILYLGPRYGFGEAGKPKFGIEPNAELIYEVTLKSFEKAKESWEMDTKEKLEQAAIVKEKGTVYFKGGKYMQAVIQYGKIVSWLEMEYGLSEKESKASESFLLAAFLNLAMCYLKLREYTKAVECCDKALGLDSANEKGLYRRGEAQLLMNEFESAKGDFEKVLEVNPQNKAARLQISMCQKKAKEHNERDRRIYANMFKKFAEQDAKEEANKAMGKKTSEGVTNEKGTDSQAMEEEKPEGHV
Experiment: SPR assay to determine binding affinity to FKBP51 (direct binding)
Settings: immobilized biotinylated avi-FKBP51
Protocol: Example 29: SPR Assay to Determine Binding Affinity to FKBP51 Biotinylated avi-FKBP51 was immobilized on a streptavidin chip (Cytiva Series S SA) using a Biacore 8K or 8 k+ (Cytiva). To achieve an immobilization level of 2000 RU, 3 μg/ml biotinylated avi-FKBP51 were injected for 360 sec at a flow rate of 10 μl/min. Rapalogs were diluted in DMSO to 100× working concentration. […]
pKd: −log10 of the molar value.
Recorded Endpoint: pKd

Worked examples, 2 molecules total:
| Chemical Structure | Recorded Endpoint | Experimental Result |
| --- | --- | --- |
| CO[C@@H]1C[C@H](C[C@@H](C)[C@@H]2CC(=O)[C@H](C)/C=C(\C)[C@@H](O)[C@@H](OC)C(=O)[C@H](C)C[C@H](C)/C=C/C=C/C=C(\C)[C@@H](OCCC3COC3)C[C@@H]3CC[C@@H](C)[C@@](O)(O3)C(=O)C(=O)N3CCCC[C@H]3C(=O)O2)CC[C@H]1O | pKd | 7.00 to 8.00 |
| CO[C@@H]1C[C@H](C[C@@H](C)[C@@H]2CC(=O)[C@H](C)/C=C(\C)[C@@H](O)[C@@H](OC)C(=O)[C@H](C)C[C@H](C)/C=C/C=C/C=C(\C)[C@@H](OCC3CCC3)C[C@@H]3CC[C@@H](C)[C@@](O)(O3)C(=O)C(=O)N3CCCC[C@H]3C(=O)O2)CC[C@H]1OCCCS(C)(=O)=O | pKd | < 7.00 |

Shift focus to the following entry.
Need pKd, item COCCOCCS(=O)(=O)N[C@@H]1C[C@@H]2CC[C@@H](C)[C@@](O)(O2)C(=O)C(=O)N2CCCC[C@H]2C(=O)O[C@H]([C@H](C)C[C@@H]2CC[C@@H](O)[C@H](OC)C2)CC(=O)[C@H](C)/C=C(\C)[C@@H](O)[C@@H](OC)C(=O)[C@H](C)C[C@H](C)/C=C/C=C/C=C/1C 7.00 to 8.00

====

Target: UniProt P62942
Sequence (P62942 whole entry): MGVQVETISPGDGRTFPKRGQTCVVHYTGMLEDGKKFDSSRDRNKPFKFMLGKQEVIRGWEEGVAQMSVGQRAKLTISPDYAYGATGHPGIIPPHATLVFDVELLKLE
As shown below, each of these molecules has a reported Kd value.

| Molecule | Subject Of Test | Kd |
| --- | --- | --- |
| CO[C@@H]1C[C@H](C[C@@H](C)[C@@H]2CC(=O)[C@H](C)/C=C(\C)[C@@H](O)[C@@H](OC)C(=O)[C@H](C)C[C@H](C)/C=C/C=C/C=C(\C)[C@@H](NS(=O)(=O)CC3CCCCC3)C[C@@H]3CC[C@@H](C)[C@@](O)(O3)C(=O)C(=O)N3CCCC[C@H]3C(=O)O2)CC[C@H]1O [Compound 20] | UniProt P62942 | < 0.3 nM |
| COCCS(=O)(=O)NC1CC2CCC(C)C(O)(O2)C(=O)C(=O)N2CCCCC2C(=O)OC(C(C)CC2CCC(OCCCS(C)(=O)=O)C(OC)C2)CC(=O)C(C)C=C(C)C(O)C(OC)C(=O)C(C)CC(C)C=CC=CC=C1C (mixture of isomers) [Compound 17] | UniProt P62942 | < 0.3 nM |
| CCOC(=O)COC1CCC(CC(C)C2CC(=O)C(C)C=C(C)C(O)C(OC)C(=O)C(C)CC(C)C=CC=CC=C(C)C(OCCOC)CC3CCC(C)C(O)(O3)C(=O)C(=O)N3CCCCC3C(=O)O2)CC1OC (stereo not drawn) [Compound 56] | UniProt P62942 | < 0.3 nM |
| COC1CC(CC(C)C2CC(=O)C(C)C=C(C)C(O)C(OC)C(=O)C(C)CC(C)C=CC=CC=C(C)C(OCCC3COC3)CC3CCC(C)C(O)(O3)C(=O)C(=O)N3CCCCC3C(=O)O2)CCC1OCCO (stereo not drawn) [Compound 38] | UniProt P62942 | 0.3 to 1 nM |

Need Kd, item CO[C@@H]1C[C@H](C[C@@H](C)[C@@H]2CC(=O)[C@H](C)/C=C(\C)[C@@H](O)[C@@H](OC)C(=O)[C@H](C)C[C@H](C)/C=C/C=C/C=C(\C)[C@@H](OCC3CCC3)C[C@@H]3CC[C@@H](C)[C@@](O)(O3)C(=O)C(=O)N3CCCC[C@H]3C(=O)O2)CC[C@H]1OCCCS(C)(=O)=O [Compound 62] > 1 nM

Need Kd, item COC1CC(CC(C)C2CC(=O)C(C)C=C(C)C(O)C(OC)C(=O)C(C)CC(C)C=CC=CC=C(C)C(OC3CC3)CC3CCC(C)C(O)(O3)C(=O)C(=O)N3CCCCC3C(=O)O2)CCC1OCCCO (stereo not drawn) [Compound 53] 0.3 to 1 nM

Need Kd, item COC1CC(CC(C)C2CC(=O)C(C)C=C(C)C(O)C(OC)C(=O)C(C)CC(C)C=CC=CC=C(C)C(NS(=O)(=O)C3CC3)CC3CCC(C)C(O)(O3)C(=O)C(=O)N3CCCCC3C(=O)O2)CCC1OCCCO (mixture of isomers) [Compound 15] < 0.3 nM

Need Kd, item CO[C@@H]1C[C@H](C[C@@H](C)[C@@H]2CC(=O)[C@H](C)/C=C(\C)[C@@H](O)[C@@H](OC)C(=O)[C@H](C)C[C@H](C)/C=C/C=C/C=C(\C)[C@@H](OC3CCS(=O)(=O)C3)C[C@@H]3CC[C@@H](C)[C@@](O)(O3)C(=O)C(=O)N3CCCC[C@H]3C(=O)O2)CC[C@H]1O (stereo partly drawn) [Compound 26] < 0.3 nM

Need Kd, item CO[C@@H]1C[C@H](C[C@@H](C)[C@@H]2CC(=O)[C@H](C)/C=C(\C)[C@@H](O)[C@@H](OC)C(=O)[C@H](C)C[C@H](C)/C=C/C=C/C=C(\C)[C@@H](OCC3CCOC3)C[C@@H]3CC[C@@H](C)[C@@](O)(O3)C(=O)C(=O)N3CCCC[C@H]3C(=O)O2)CC[C@H]1O (stereo partly drawn) [Compound 31] < 0.3 nM

Need Kd, item CO[C@@H]1C[C@H](C[C@@H](C)[C@@H]2CC(=O)[C@H](C)/C=C(\C)[C@@H](O)[C@@H](OC)C(=O)[C@H](C)C[C@H](C)/C=C/C=C/C=C(\C)[C@H](NS(=O)(=O)CC3CCOCC3)C[C@@H]3CC[C@@H](C)[C@@](O)(O3)C(=O)C(=O)N3CCCC[C@H]3C(=O)O2)CC[C@H]1O [Compound 5] < 0.3 nM

Need Kd, item COCCS(=O)(=O)NC1CC2CCC(C)C(O)(O2)C(=O)C(=O)N2CCCCC2C(=O)OC(C(C)CC2CCC(OCCO)C(OC)C2)CC(=O)C(C)C=C(C)C(O)C(OC)C(=O)C(C)CC(C)C=CC=CC=C1C (mixture of isomers) [Compound 16] < 0.3 nM

====

Target: FKBP51 / FRB ternary complex (Homo sapiens (Human), UniProt P42345+Q13451)
Sequence (Q13451 whole entry): as the sequence (Q13451 whole entry) above
Sequence (P42345 2012-2144): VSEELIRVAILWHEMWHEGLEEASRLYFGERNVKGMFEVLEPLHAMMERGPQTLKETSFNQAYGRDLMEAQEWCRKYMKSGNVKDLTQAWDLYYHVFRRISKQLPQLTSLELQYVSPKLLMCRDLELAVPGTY
Test: SPR assay to characterize ternary complex formation with FKBP51 (FRB binding to rapalog-saturated FKBP51)
Settings: FRB dilutions with 100 nM rapalog on immobilized FKBP51
As shown below, each of these molecules has a reported Kd value.

| Chemical Structure | Recorded Endpoint | Experimental Result |
| --- | --- | --- |
| CO[C@@H]1C[C@H](C[C@@H](C)[C@@H]2CC(=O)[C@H](C)/C=C(\C)[C@@H](O)[C@@H](OC)C(=O)[C@H](C)C[C@H](C)/C=C/C=C/C=C(\C)[C@H](NS(=O)(=O)CC3CCCC3)C[C@@H]3CC[C@@H](C)[C@@](O)(O3)C(=O)C(=O)N3CCCC[C@H]3C(=O)O2)CC[C@H]1O | Kd | > 0.8 µM |

Requested read-out Kd, target or system FKBP51 / FRB ternary complex (Homo sapiens (Human), UniProt P42345+Q13451), entry COCCO[C@H]1C[C@@H]2CC[C@@H](C)[C@@](O)(O2)C(=O)C(=O)N2CCCC[C@H]2C(=O)O[C@H]([C@H](C)C[C@@H]2CC[C@@H](OCCCS(C)(=O)=O)[C@H](OC)C2)CC(=O)[C@H](C)/C=C(\C)[C@@H](O)[C@@H](OC)C(=O)[C@H](C)C[C@H](C)/C=C/C=C/C=C/1C > 0.8 µM

====

As shown below, each of these compounds has a reported Kd value.
Target: FKBP51 / FRB ternary complex (Homo sapiens (Human), UniProt P42345+Q13451)
Test: SPR assay to characterize ternary complex formation with FKBP51 (FRB binding to rapalog-saturated FKBP51)
Settings: FRB dilutions with 100 nM rapalog on immobilized FKBP51

Worked examples, 3 compounds total:
| Compound | Subject Of Test | Recorded Endpoint | Experimental Result |
| --- | --- | --- | --- |
| COC1C(=O)C(C)CC/C=C/C=C/C=C(\C)C(NS(=O)(=O)CCCS(=O)(=O)O)C[C@H]2CC[C@H](C)[C@](O)(O2)C(=O)C(=O)N(C)C(C)C(=O)OC([C@H](C)C[C@@H]2CC[C@@H](OC3CC3)[C@H](OC)C2)CC(=O)C(C)/C=C(\C)C1O (stereo partly shown) [Compound 18] | FKBP51 / FRB ternary complex (Homo sapiens (Human), UniProt P42345+Q13451) | Kd | 300 to 800 nM |
| COC1CC(CC(C)C2CC(=O)C(C)C=C(C)C(O)C(OC)C(=O)C(C)CC(C)C=CC=CC=C(C)C(OC3CCOC3)CC3CCC(C)C(O)(O3)C(=O)C(=O)N3CCCCC3C(=O)O2)CCC1O (stereo not shown) [Compound 35] | FKBP51 / FRB ternary complex (Homo sapiens (Human), UniProt P42345+Q13451) | Kd | > 800 nM |
| COC1CC(CC(C)C2CC(=O)C(C)C=C(C)C(O)C(OC)C(=O)C(C)CC(C)C=CC=CC=C(C)C(NS(=O)(=O)C3CC3)CC3CCC(C)C(O)(O3)C(=O)C(=O)N3CCCCC3C(=O)O2)CCC1OCCCO (mixture of isomers) [Compound 15] | FKBP51 / FRB ternary complex (Homo sapiens (Human), UniProt P42345+Q13451) | Kd | > 800 nM |

Shift focus to the following entry.
Need Kd, item COC1C(=O)C(C)CC/C=C/C=C/C=C(\C)[C@H](NS(=O)(=O)CCO)C[C@H]2CC[C@H](C)[C@](O)(O2)C(=O)C(=O)N(C)C(C)C(=O)OC([C@H](C)C[C@@H]2CC[C@@H](OC3CC3)[C@H](OC)C2)CC(=O)C(C)/C=C(\C)C1O (stereo partly shown) [Compound 10] 300 to 800 nM
